Origin of measurements: ChEMBL document CHEMBL1275598

tested on: Staphylococcus aureus; assay: Antimicrobial activity against vancomycin intermediate Staphylococcus aureus NRS-17 expressing SCCmec type 2 element by microdilution method; format: functional
assay readout: MIC (µg/mL)
Numbers only, in µg/mL.

compound | MIC (µg/mL)
CCC[C@@H]1C[C@@H](C(=O)N[C@@H]([C@H]2O[C@H](SC)[C@H](O)[C@@H](O)[C@H]2O)[C@H](C)Cl)N(C)C1 [CLINDAMYCIN] | 0.06
CCO/N=C(\C(=O)N[C@@H]1C(=O)N2C(C(=O)[O-])=C(Sc3nc(-c4cc[n+](C)cc4)cs3)CS[C@H]12)c1nsc(NP(=O)(O)O)n1 [CEFTAROLINE FOSAMIL] | 0.5
CC(=O)NC[C@H]1CN(c2ccc(N3CCOCC3)c(F)c2)C(=O)O1 [LINEZOLID] | 1

Can you share its MIC? I mean this compound: CN[C@H](CC(C)C)C(=O)N[C@H]1C(=O)N[C@@H](CC(N)=O)C(=O)N[C@H]2C(=O)N[C@H]3C(=O)N[C@H](C(=O)N[C@H](C(=O)O)c4cc(O)cc(O)c4-c4cc3ccc4O)[C@H](O)c3ccc(c(Cl)c3)Oc3cc2cc(c3O[C@@H]2O[C@H](CO)[C@@H](O)[C@H](O)[C@H]2O[C@H]2C[C@](C)(N)[C@H](O)[C@H](C)O2)Oc2ccc(cc2Cl)[C@H]1O [VANCOMYCIN]
8

* * *

Kindly state MBC for each of the entries shown.
tested on: Staphylococcus aureus; test: Bactericidal activity against community-acquired methicillin-resistant Staphylococcus aureus assessed as antibiotic concentration that reduced the number of viable cells by =>99.9% by colony count method; type: functional; conditions: Staphylococcus aureus
Answers are plain numbers, in µg/mL.

compound | target desc | assay readout | unit abbrev | obs value
CCO/N=C(\C(=O)N[C@@H]1C(=O)N2C(C(=O)[O-])=C(Sc3nc(-c4cc[n+](C)cc4)cs3)CS[C@H]12)c1nsc(NP(=O)(O)O)n1 [CEFTAROLINE FOSAMIL] | Staphylococcus aureus | MBC | µg/mL | 0.25

Which MBC value is on record for CN[C@H](CC(C)C)C(=O)N[C@H]1C(=O)N[C@@H](CC(N)=O)C(=O)N[C@H]2C(=O)N[C@H]3C(=O)N[C@H](C(=O)N[C@H](C(=O)O)c4cc(O)cc(O)c4-c4cc3ccc4O)[C@H](O)c3ccc(c(Cl)c3)Oc3cc2cc(c3O[C@@H]2O[C@H](CO)[C@@H](O)[C@H](O)[C@H]2O[C@H]2C[C@](C)(N)[C@H](O)[C@H](C)O2)Oc2ccc(cc2Cl)[C@H]1O [VANCOMYCIN] ?
0.5

* * *

test system: Staphylococcus aureus; test: Antimicrobial activity against vancomycin intermediate Staphylococcus aureus NRS-402 expressing SCCmec type 2 element by microdilution method; format: functional
assay readout: MIC (µg/mL)
One number for each entry, in µg/mL.

# example entries with known answers
molecule | unit abbrev | obs value
CCO/N=C(\C(=O)N[C@@H]1C(=O)N2C(C(=O)[O-])=C(Sc3nc(-c4cc[n+](C)cc4)cs3)CS[C@H]12)c1nsc(NP(=O)(O)O)n1 [CEFTAROLINE FOSAMIL] | µg/mL | 0.5
CN[C@H](CC(C)C)C(=O)N[C@H]1C(=O)N[C@@H](CC(N)=O)C(=O)N[C@H]2C(=O)N[C@H]3C(=O)N[C@H](C(=O)N[C@H](C(=O)O)c4cc(O)cc(O)c4-c4cc3ccc4O)[C@H](O)c3ccc(c(Cl)c3)Oc3cc2cc(c3O[C@@H]2O[C@H](CO)[C@@H](O)[C@H](O)[C@H]2O[C@H]2C[C@](C)(N)[C@H](O)[C@H](C)O2)Oc2ccc(cc2Cl)[C@H]1O [VANCOMYCIN] | µg/mL | 8

Kindly review the next molecule as well.
# MIC lookup, item CC(=O)NC[C@H]1CN(c2ccc(N3CCOCC3)c(F)c2)C(=O)O1 [LINEZOLID]
0.5
